Ref: paper PMC6912361

TARGET OR SYSTEM: CDK8 (Homo sapiens, UniProt P49336)
Sequence (P49336 whole entry): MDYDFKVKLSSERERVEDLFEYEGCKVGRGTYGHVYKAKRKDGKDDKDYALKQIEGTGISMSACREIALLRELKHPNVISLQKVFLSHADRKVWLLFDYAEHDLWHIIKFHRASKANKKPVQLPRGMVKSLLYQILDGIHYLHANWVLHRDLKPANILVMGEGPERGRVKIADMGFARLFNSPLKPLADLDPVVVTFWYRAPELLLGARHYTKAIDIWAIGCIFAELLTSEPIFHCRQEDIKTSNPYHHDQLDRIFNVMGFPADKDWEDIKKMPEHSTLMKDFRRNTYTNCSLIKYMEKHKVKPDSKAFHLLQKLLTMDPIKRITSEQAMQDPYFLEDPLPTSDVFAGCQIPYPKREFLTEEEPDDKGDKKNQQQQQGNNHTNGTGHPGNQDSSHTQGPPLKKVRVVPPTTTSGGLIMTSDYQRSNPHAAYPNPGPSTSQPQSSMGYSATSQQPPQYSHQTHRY
Sequence (P24863 whole entry partner): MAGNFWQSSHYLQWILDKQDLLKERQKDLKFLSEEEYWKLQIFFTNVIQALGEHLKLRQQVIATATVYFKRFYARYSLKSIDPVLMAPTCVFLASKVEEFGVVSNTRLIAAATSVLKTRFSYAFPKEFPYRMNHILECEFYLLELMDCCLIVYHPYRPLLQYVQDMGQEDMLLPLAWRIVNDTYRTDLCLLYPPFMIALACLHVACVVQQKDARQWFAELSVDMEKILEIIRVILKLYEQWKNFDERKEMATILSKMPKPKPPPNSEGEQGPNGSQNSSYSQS
EXPERIMENTAL PROTOCOL: Cell-based QPCR assay of CDK8/19-dependent gene expression, HEK293 CDK19 single-knockout (19KO) cells
Design: CDK19 single-knockout (19KO); endogenous in cells; host or cells: HEK293 CDK19 knockout (19KO)
CONDITIONS: HEK293 19KO, 1 h pre-treatment, then 10 ng/mL TNFα 2 h, read-out: IC50, MYC mRNA expression, 19KO
pIC50: −log10 of the molar value.
MEASURE NAME: pIC50

P. CN(C)C(=O)Cc1ccc(N2CCCN(c3ccnc4sc(C(N)=O)c(N)c34)CC2)cc1 [15w]
Q. CN1CCN(C(=O)c2ccc3cc(CCNc4ncnc5ccc(C#N)cc45)ccc3c2)CC1
## Input Sorting by pIC50 in descending order, would P or Q appear first? Indicate which entry you chose by stating its label.
## Output P

====

Target chain: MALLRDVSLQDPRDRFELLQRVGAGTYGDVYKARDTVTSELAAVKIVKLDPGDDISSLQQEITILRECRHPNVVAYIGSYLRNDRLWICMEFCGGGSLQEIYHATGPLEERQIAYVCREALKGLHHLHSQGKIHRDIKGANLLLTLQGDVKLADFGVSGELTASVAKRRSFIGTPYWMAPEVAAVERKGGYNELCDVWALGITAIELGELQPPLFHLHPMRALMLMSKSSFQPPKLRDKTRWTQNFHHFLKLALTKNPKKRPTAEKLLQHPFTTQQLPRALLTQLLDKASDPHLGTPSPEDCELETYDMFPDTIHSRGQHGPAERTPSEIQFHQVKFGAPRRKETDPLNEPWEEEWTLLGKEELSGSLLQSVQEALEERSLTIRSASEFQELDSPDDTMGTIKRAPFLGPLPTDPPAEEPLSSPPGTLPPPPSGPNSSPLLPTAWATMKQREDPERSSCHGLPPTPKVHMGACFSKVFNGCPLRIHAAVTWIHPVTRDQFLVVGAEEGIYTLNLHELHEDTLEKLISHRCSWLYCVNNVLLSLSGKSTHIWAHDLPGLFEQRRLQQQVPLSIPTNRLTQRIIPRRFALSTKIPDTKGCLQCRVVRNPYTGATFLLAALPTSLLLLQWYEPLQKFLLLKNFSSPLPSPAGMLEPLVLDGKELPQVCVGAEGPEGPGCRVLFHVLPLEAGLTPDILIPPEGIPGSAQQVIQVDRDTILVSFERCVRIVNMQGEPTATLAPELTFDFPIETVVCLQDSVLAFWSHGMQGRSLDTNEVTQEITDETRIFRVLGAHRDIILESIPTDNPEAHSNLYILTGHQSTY
MEASURE NAME: pKd
Here pKd is given on a logarithmic scale as minus log10 of the concentration in mol/L.

## Input What measured pKd goes with CN1CCN(C(=O)c2ccc3cc(CCNc4ncnc5ccc(C#N)cc45)ccc3c2)CC1 ?
## Output 6.24

====

TARGET OR SYSTEM: CDK8 (Homo sapiens)
EXPERIMENTAL PROTOCOL: Cell-based QPCR assay of CDK8/19-dependent gene expression, HEK293 CDK19 single-knockout (19KO) cells
Design: CDK19 single-knockout (19KO); endogenous in cells; host or cells: HEK293 CDK19 knockout (19KO)
CONDITIONS: IC50, CXCL8 mRNA expression, 19KO, HEK293 19KO, 1 h pre-treatment, then 10 ng/mL TNFα 2 h
MEASURE NAME: IC50 (nM)
Supply the numeric figure in nM, leaving out any unit text.

COMPOUND	TARGET OR SYSTEM	NUMBER
Cc1n[nH]c2ncc(C(=O)N3CCC[C@H]3c3ccc(Cl)cc3)cc12	CDK8 (Homo sapiens)	3.1

Then there is this compound:
## Input What measured IC50 goes with CN(C)C1CC23CCC4(O2)C(=CCC2(C)C(c5ccc6ccncc6c5)=CCC24)C=C3C(O)C1O (centres unmarked) [dCA, 16-didehydro-cortistatin A] ?
## Output 1
